molecular target: Aβ16-G4-C, [Ac]-…-[NH2]; assay: SPR; Aβ16-G4-C immobilised by thiol coupling on a CM5 chip (1023 RU), BIAcore T100; tetrapeptides injected at 0-2000 μM, 10 μL/min, 300 s; running buffer 10 mM HEPES, pH 6.8; global fit, Langmuir 1:1 model; Kd = koff/kon
Listing of entries alongside the reported Kd.
Please state the value followed by its unit.

binder: Ac-RADD-NH2 [Ac-RADD-NH2]
observation type: Kd
test value: 13 µM

With those in mind, consider the next binder.
Challenge: Look at this binder and give its reported Kd. Ac-HAEE-NH2 [Ac-HAEE-NH2 tetrapeptide]
Response given: 90 µM
